# Settings: 323.15 K; 101.33 kPa; Liquid; Pycnometric method
Endpoint Label: mass density (kg/m3)
Numbers only here, please. The scale is kg/m3.

[Q] // returns reported mass density for input CCCCBr
[A] 1229.53

[Q] Next record, please: CCCCCCCCBr
[A] 1080.6

[Q] And what about the compound CCCCCBr ?
[A] 1177.13

[Q] Now this one: CCCCCCCCCBr
[A] 1058.34

[Q] Param item: CCCCCCBr
[A] 1137.27

[Q] Moving on to CCCCCCCCCCCCBr
[A] 1013.99

[Q] Then CCCCCCCCCCBr ?
[A] 1041.72

[Q] What would you report for CCCCCCCBr ?
[A] 1105.97

###

# Settings: 253.15 K; 101.33 kPa; Liquid; Pycnometric method
Give mass density for every item shown.
Kindly provide the numeric value in kg/m3 only, without the unit symbol.

[Q] I have this molecule here, CCCCCCCCBr [1-bromooctane] , and I need its recorded mass density.
[A] 1151.11

[Q] Another molecule to check: CCCCCCCBr [1-bromoheptane]
[A] 1180.21

[Q] Please do the same for CCCCCCBr [1-bromohexane] as well.
[A] 1217.95

[Q] Now consider CCCCCBr [1-bromopentane] and answer again.
[A] 1260.65

[Q] Lookup CCCCCCCCCBr [1-bromononane]
[A] 1124.52

[Q] Please do the same for CCCCBr [1-bromobutane] as well.
[A] 1326.49

[Q] Also, CCCBr [1-bromopropane] please.
[A] 1415.43

###

# Settings: 383.15 K; 101.33 kPa; Liquid; Pycnometric method
± gives the expanded uncertainty stated by the source.
Exercise: for every item that follows, state its recorded mass density.
# output: numeric value plus its unit

[Q] Could you share which mass density value was measured for CCCCCCBr ?
[A] 1066.11 ± 0.55 kg/m3

[Q] Follow-up item: CCCCCCCCCCCCBr
[A] 961.54 ± 0.55 kg/m3

[Q] Now try CCCCCCCCBr .
[A] 1018.75 ± 0.58 kg/m3

[Q] Would you kindly repeat that for CCCCCCCCCCBr ?
[A] 985.41 ± 1.4 kg/m3

[Q] Entry CCCCCCCCCBr please
[A] 999.36 ± 1.3 kg/m3

[Q] Entry to check: CCCCCCCBr
[A] 1038.55 ± 0.56 kg/m3

[Q] What do you have for CCCCCBr ?
[A] 1097.39 ± 0.76 kg/m3

###

Assignment: determine reported mass density for the given compounds.
# Settings: 303.15 K; 101.33 kPa; Liquid; Pycnometric method
± gives the expanded uncertainty stated by the source.

[Q] Could you share which mass density value was measured for CCCCCCCCCCCCBr [1-bromododecane] ?
[A] 1031.27 ± 0.42 kg/m3

[Q] Can you handle CCCCCCCCBr [1-bromooctane] next?
[A] 1100.89 ± 0.46 kg/m3

[Q] Queued: CCCCBr [1-bromobutane]
[A] 1258.55 ± 0.42 kg/m3

[Q] Note, next up: CCCCCBr [1-bromopentane]
[A] 1202.6 ± 0.67 kg/m3

###

Would you kindly list mass density for each of these compounds?
# Settings: 343.15 K; 101.33 kPa; Liquid; Pycnometric method
The answer is to be given in kg/m3; state only the numeric part.

[Q] Sample CCCCCCCCCCCCBr [1-bromododecane] — what was its mass density?
[A] 996.24

[Q] Do the same for CCCCCCBr [1-bromohexane] please
[A] 1113.66

[Q] What do you have for CCCCCCCCCCBr [1-bromodecane] ?
[A] 1023.01

[Q] Also, CCCCCCCBr [1-bromoheptane] please.
[A] 1084.54

[Q] How about this compound: CCCCCCCCBr [1-bromooctane]
[A] 1060.45

[Q] Note, next up: CCCCCBr [1-bromopentane]
[A] 1150.97

[Q] For CCCCCCCCCBr [1-bromononane] then?
[A] 1038.92

###

# Settings: 283.15 K; 101.33 kPa; Liquid; Pycnometric method
Endpoint Label: mass density (kg/m3)
Give the value in kg/m3 but do not write kg/m3 after it.

[Q] Please look up its mass density: CCCCCCBr
[A] 1183.82

[Q] Then this molecule: CCCCCCCCBr
[A] 1121.21

[Q] Another: CCCCCBr
[A] 1226.85

[Q] Now consider CCCCCCCCCCCCBr .
[A] 1048.47

[Q] And CCCCCCCBr ?
[A] 1148.71

[Q] Now the molecule CCCCCCCCCBr
[A] 1096.09

[Q] Repeat for the following molecule: CCCCBr
[A] 1286.37

[Q] Please do the same for CCCBr as well.
[A] 1369.4

###

# Settings: 393.15 K; 101.33 kPa; Liquid; Pycnometric method
Endpoint Label: mass density (kg/m3)
Please reply with the bare figure in kg/m3 and do not write the unit itself.

[Q] Which measured mass density value corresponds to CCCCCBr ?
[A] 1083.35

[Q] // next record CCCCCCCCCCCCBr
[A] 952.43

[Q] Consider next the molecule CCCCCCCBr in the same way.
[A] 1026.63

[Q] Now the molecule CCCCCCCCCBr
[A] 989.17

[Q] Another molecule to check: CCCCCCCCBr
[A] 1008.38

###

# Settings: 263.15 K; 101.33 kPa; Liquid; Pycnometric method
I'd appreciate it if you could supply mass density values for the items below.
Reply with just the number (in kg/m3).

[Q] Fill in the blank: the reported mass density of CCCCCCBr is ____.
[A] 1206.62

[Q] Same question for CCCCBr please.
[A] 1313.8

[Q] Another compound to look at: CCCBr
[A] 1400.28

[Q] Now the same for CCCCCCCBr
[A] 1169.57

[Q] Request: CCCCCCCCBr
[A] 1140.86

[Q] Thanks! And CCCCCBr ?
[A] 1249.88

###

# Settings: 293.15 K; 101.33 kPa; Liquid; Pycnometric method
Endpoint Label: mass density (kg/m3)
# unit: kg/m3 | format: bare number

[Q] Entry under review: CCCCBr . Reported mass density?
[A] 1272.7

[Q] What do you have for CCCCCBr ?
[A] 1214.88

[Q] // query: CCCCCCCCCCBr
[A] 1069.01

[Q] Note, next up: CCCCCCCCCBr
[A] 1086.58

[Q] Another compound: CCCBr
[A] 1352.89

[Q] For CCCCCCCCCCCCBr then?
[A] 1039.81

[Q] Moving on to CCCCCCCCBr
[A] 1111.01

src = the NIST ThermoML archive (doi:10.1021/je900227j)
